- Target of assay: mTOR (Homo sapiens, UniProt P42345)
- Construct: recombinant human mTOR fragment (amino acid 1360-2549, molecular weight=163.9 kDa); GST-tag (N)
- Sequence (P42345 1360-2549): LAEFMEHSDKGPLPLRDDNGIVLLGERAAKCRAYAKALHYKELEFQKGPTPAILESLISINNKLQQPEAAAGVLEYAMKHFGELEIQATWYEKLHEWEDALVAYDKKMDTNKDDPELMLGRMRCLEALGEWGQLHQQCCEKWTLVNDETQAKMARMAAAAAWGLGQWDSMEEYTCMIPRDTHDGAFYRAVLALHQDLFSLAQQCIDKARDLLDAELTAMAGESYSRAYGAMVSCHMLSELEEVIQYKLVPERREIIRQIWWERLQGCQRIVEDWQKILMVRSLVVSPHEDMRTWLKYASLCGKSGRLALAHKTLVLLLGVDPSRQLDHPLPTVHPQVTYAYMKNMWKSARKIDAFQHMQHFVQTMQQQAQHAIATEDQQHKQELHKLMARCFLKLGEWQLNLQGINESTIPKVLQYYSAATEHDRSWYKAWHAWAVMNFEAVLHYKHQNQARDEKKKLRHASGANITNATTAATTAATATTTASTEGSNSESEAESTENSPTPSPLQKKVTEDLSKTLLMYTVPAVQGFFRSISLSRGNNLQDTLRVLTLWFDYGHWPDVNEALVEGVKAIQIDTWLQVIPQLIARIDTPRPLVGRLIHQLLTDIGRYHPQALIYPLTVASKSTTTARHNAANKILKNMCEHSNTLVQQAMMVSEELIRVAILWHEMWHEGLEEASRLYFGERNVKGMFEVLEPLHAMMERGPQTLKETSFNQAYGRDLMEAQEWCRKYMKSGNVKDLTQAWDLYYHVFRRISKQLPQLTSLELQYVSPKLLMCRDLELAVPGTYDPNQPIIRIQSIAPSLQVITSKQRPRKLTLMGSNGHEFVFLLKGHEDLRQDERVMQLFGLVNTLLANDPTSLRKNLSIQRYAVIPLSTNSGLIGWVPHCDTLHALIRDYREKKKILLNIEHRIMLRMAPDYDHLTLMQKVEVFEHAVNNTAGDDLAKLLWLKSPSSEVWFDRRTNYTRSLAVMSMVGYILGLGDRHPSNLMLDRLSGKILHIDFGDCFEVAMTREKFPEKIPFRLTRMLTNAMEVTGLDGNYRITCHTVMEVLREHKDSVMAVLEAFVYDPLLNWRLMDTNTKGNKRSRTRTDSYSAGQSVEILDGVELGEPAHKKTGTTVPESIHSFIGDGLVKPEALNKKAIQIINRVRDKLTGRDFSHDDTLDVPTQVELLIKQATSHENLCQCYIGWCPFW
- Test: In vitro enzyme activity assay, mTOR kinase (32P-ATP, P81 filter-binding)
- Measurement conditions: 4EBPI substrate, 10 μM ATP; read-out: mTOR enzyme activity_IC50
Parameter: IC50

Worked examples, 6 compounds total:
> print(dat)
                                   compound  parameter      reported
1  COc1ncc(-c2ccc3ncc(OCCN4CCOCC4)c(=O)n3c2)cc1NS(=O)(=O)c1ccc(F)cc1C [Compound 8]       IC50      > 200 nM
2  COc1ncc(-c2ccc3ncc(OCCN(C)C)c(=O)n3c2)cc1NS(=O)(=O)c1ccc(F)cc1F [Compound 43]       IC50      > 200 nM
3  COc1ncc(-c2ccc3ncc(OCCN4CCC(F)CC4)c(=O)n3c2)cc1NS(=O)(=O)c1sc(C)nc1C [Compound 2]       IC50  50 to 200 nM
4  CNCCOc1cnc2ccc(-c3cnc(OC)c(NS(=O)(=O)c4sc(C)nc4C)c3)cn2c1=O [Compound 6]       IC50      > 200 nM
5  COc1ncc(-c2ccc3ncc(OC4CCNCC4)c(=O)n3c2)cc1NS(=O)(=O)c1ccc(F)cc1F [Compound 41]       IC50      > 200 nM
6  COc1ncc(-c2ccc3ncc(OCCN4CCOCC4)c(=O)n3c2)cc1NS(=O)(=O)c1ccccc1Cl [Compound 10]       IC50      > 200 nM

Moving on to another compound below.
Task item: Please look at this compound and report its IC50: Cc1nc(C)c(S(=O)(=O)Nc2cc(-c3ccc4ncc(OCCN5CCOCC5)c(=O)n4c3)cnc2N)s1 [Compound 12]
Reply: 50 to 200 nM
